Kindly supply the reported Ki values for the records listed here.
target: GABA A receptor alpha-6/beta-2/gamma-2 (Rattus norvegicus, UniProt P18508+P30191+P63138)
Sequence (P18508 39-466 limits assumed, change not shown): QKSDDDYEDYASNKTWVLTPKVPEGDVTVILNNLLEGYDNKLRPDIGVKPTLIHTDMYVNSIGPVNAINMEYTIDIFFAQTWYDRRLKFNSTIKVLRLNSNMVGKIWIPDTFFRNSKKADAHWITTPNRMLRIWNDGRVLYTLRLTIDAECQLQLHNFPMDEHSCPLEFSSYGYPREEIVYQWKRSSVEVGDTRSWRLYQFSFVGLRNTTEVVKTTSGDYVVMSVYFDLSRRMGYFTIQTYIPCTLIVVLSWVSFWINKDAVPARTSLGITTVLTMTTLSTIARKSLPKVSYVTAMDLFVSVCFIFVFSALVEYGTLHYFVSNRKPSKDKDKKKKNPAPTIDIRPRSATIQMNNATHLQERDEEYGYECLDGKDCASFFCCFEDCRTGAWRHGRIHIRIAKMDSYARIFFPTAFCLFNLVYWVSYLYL
Sequence (P30191 20-453 limits assumed, change not shown): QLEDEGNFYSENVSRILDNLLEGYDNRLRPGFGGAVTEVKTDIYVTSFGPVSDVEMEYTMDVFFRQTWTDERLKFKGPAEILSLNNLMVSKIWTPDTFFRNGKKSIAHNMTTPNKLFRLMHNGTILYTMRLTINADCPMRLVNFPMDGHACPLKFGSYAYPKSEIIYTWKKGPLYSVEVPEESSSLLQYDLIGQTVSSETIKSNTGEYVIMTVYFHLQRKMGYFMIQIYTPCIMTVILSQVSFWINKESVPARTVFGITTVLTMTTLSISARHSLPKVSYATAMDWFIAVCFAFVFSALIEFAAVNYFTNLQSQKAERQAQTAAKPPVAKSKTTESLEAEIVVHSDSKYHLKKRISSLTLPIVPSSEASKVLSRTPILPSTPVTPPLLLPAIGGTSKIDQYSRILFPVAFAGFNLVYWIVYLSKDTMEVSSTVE
Sequence (P63138 26-474 limits assumed, change not shown): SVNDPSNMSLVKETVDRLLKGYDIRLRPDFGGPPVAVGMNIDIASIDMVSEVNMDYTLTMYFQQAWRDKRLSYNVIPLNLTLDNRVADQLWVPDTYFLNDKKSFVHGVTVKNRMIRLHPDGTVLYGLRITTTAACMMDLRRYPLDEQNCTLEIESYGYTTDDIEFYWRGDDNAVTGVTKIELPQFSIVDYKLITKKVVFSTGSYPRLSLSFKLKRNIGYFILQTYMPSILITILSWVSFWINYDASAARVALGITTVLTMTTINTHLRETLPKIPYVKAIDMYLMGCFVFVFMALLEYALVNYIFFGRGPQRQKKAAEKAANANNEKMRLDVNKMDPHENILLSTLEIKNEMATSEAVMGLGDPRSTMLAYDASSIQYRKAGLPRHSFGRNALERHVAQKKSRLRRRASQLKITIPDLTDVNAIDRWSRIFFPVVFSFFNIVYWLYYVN
test details: Binding affinity for mutant rat GABA-A receptor alpha-6-(his,thr,gly)beta2gamma2 subunits expressed in HEK293 cells
Type: cell-based

What measured Ki goes with Cc1nnc2ccc(-c3cccc(C(F)(F)F)c3)nn12 [CI-218872] ?
620 nM

What measured Ki goes with CCOC(=O)c1ncn2c1CN(C)C(=O)c1cc(N=[N+]=[N-])ccc1-2 [Ro-154513] ?
8 nM

----------
target: GABA A receptor alpha-6/beta-2/gamma-2 (Rattus norvegicus, UniProt P18508+P30191+P63138)
test details: Binding affinity for mutant rat GABA-A receptor alpha-6-(his)-beta-2-gamma-2 subunits expressed in HEK293 cells
Assay type: cell-based
property label: pKi
Please keep in mind that pKi is minus log10 of the molar concentration; only the number is needed.

What measured pKi goes with Cc1nnc2ccc(-c3cccc(C(F)(F)F)c3)nn12 [CI-218872] ?
5.22

----------
target: GABA A receptor alpha-6/beta-2/gamma-2 (Rattus norvegicus, UniProt P18508+P30191+P63138)
test details: Binding affinity for mutant rat GABA-A receptor alpha-6-(his,thr,gly,val)beta2gamma2 subunits expressed in HEK293 cells
Format: cell-based
property label: pKi
Please keep in mind that pKi is minus log10 of the molar concentration; only the number is needed.

What measured pKi goes with Cc1nnc2ccc(-c3cccc(C(F)(F)F)c3)nn12 [CI-218872] ?
6.11

----------
target: GABA-A receptor; alpha-1/beta-2/gamma-2 (Rattus norvegicus, UniProt P18508+P62813+P63138)
test details: Binding affinity for rat GABA-A receptor alpha-1-beta-2-gamma-2 subunits expressed in HEK293 cells
Type: cell-based
Sequence (P18508 whole entry): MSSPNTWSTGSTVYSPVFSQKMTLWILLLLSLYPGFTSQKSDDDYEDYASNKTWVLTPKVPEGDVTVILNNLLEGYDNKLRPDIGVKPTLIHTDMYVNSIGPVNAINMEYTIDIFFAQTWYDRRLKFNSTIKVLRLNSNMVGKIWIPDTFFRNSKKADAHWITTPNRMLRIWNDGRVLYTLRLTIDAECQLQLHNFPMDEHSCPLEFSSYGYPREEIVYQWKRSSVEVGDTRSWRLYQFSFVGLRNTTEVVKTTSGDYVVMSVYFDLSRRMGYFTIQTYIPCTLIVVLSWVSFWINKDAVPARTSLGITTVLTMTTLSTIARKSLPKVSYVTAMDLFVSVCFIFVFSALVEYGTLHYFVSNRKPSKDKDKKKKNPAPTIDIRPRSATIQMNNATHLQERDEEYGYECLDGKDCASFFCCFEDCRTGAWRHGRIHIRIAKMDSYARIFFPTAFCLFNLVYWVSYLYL
Sequence (P62813 whole entry): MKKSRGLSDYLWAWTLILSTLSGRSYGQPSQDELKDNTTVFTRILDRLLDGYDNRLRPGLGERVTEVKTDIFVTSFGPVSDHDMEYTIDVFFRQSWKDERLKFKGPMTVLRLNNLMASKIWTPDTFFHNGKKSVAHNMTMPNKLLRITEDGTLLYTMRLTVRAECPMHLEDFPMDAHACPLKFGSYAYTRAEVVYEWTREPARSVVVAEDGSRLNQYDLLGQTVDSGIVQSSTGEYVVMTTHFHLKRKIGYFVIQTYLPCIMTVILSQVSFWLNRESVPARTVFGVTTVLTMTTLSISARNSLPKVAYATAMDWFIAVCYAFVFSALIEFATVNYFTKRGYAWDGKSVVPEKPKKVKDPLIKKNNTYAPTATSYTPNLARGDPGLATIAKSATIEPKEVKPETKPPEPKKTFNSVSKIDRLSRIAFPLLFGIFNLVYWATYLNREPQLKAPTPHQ
Sequence (P63138 whole entry): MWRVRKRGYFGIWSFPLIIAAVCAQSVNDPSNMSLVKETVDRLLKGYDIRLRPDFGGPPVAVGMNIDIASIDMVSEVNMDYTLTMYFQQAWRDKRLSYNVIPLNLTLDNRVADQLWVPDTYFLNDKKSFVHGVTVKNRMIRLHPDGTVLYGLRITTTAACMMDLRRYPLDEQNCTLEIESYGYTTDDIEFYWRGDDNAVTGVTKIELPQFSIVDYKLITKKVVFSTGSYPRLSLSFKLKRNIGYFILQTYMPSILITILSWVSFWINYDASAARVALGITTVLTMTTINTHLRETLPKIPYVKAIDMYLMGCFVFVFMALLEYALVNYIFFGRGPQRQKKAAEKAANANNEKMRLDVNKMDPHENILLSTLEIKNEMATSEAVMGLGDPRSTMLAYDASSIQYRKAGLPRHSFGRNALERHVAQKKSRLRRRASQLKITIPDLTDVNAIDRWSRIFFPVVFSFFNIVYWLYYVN
property label: Ki (nM)
// return numeric value only (unit: nM, not printed)

What measured Ki goes with Cc1nnc2ccc(-c3cccc(C(F)(F)F)c3)nn12 [CI-218872] ?
108

What measured Ki goes with CCOC(=O)c1ncn2c1CN(C)C(=O)c1cc(N=[N+]=[N-])ccc1-2 [Ro-154513] ?
15

----------
target: GABA-A receptor; alpha-1/beta-2/gamma-2 (Rattus norvegicus, UniProt P18508+P62813+P63138)
test details: Binding affinity for mutant rat GABA-A receptor alpha-1-(arg)-beta-2-gamma-2 subunits expressed in HEK293 cells
Format: cell-based
Sequence (P18508 39-466 limits assumed, change not shown): as the sequence (P18508 39-466 limits assumed, change not shown) above
Sequence (P62813 28-455 limits assumed, change not shown): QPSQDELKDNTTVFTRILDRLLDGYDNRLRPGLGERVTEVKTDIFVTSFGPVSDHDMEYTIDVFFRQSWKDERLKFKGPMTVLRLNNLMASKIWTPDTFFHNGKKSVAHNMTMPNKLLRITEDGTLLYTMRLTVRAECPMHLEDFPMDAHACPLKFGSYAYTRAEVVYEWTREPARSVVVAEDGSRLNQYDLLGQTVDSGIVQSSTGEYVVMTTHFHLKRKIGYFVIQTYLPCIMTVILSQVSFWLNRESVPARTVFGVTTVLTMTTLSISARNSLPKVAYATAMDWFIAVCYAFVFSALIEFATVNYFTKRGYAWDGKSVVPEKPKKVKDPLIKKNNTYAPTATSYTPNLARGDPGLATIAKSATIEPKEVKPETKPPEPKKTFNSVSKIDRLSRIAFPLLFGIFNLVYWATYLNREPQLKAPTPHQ
Sequence (P63138 26-474 limits assumed, change not shown): as the sequence (P63138 26-474 limits assumed, change not shown) above
property label: pKi
Please keep in mind that pKi is minus log10 of the molar concentration; only the number is needed.

What measured pKi goes with CCOC(=O)c1ncn2c1CN(C)C(=O)c1cc(N=[N+]=[N-])ccc1-2 [Ro-154513] ?
8.72

----------
target: GABA A receptor alpha-6/beta-2/gamma-2 (Rattus norvegicus, UniProt P18508+P30191+P63138)
test details: Binding affinity for mutant rat GABA-A receptor alpha-6-(his,thr,gly,val)beta2gamma2 subunits expressed in HEK293 cells
Assay type: cell-based
property label: Ki (nM)
// return numeric value only (unit: nM, not printed)

What measured Ki goes with CCOC(=O)c1ncn2c1CN(C)C(=O)c1cc(N=[N+]=[N-])ccc1-2 ?
190

----------
target: GABA A receptor alpha-6/beta-2/gamma-2 (Rattus norvegicus, UniProt P18508+P30191+P63138)
test details: Binding affinity for mutant rat GABA-A receptor alpha-6-(his,thr)beta2gamma2 subunits expressed in HEK293 cells
Assay type: cell-based
property label: Ki (nM)
// return numeric value only (unit: nM, not printed)

What measured Ki goes with CCOC(=O)c1ncn2c1CN(C)C(=O)c1cc(N=[N+]=[N-])ccc1-2 [Ro-154513] ?
6

----------
target: GABA A receptor alpha-3/beta-2/gamma-2 (Rattus norvegicus, UniProt P18508+P20236+P63138)
Sequence (P18508 whole entry): as the sequence (P18508 whole entry) above
Sequence (P20236 whole entry): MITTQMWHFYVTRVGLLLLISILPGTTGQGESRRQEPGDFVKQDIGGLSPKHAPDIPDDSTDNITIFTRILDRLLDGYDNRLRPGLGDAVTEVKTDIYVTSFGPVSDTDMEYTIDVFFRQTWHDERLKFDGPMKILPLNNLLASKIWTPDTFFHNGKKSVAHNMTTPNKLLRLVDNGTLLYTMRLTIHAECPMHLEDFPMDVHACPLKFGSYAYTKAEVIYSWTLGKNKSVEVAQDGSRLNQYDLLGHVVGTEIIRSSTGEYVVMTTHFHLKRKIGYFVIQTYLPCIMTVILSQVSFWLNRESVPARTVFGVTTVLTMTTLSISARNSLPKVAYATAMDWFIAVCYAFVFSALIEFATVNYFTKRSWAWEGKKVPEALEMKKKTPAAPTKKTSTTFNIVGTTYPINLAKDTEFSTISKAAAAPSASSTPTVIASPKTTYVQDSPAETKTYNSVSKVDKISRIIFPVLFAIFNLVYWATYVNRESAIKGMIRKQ
Sequence (P63138 whole entry): as the sequence (P63138 whole entry) above
test details: Binding affinity for rat GABA-A receptor alpha-3-beta-2-gamma-2 subunits expressed in HEK293 cells
property label: Ki
Note: state the figure and append the unit.

What measured Ki goes with CCOC(=O)c1ncn2c1CN(C)C(=O)c1cc(N=[N+]=[N-])ccc1-2 [Ro-154513] ?
5 nM

What measured Ki goes with Cc1nnc2ccc(-c3cccc(C(F)(F)F)c3)nn12 [CI-218872] ?
1620 nM

----------
target: GABA A receptor alpha-6/beta-2/gamma-2 (Rattus norvegicus, UniProt P18508+P30191+P63138)
test details: Binding affinity for mutant rat GABA-A receptor alpha-6-(his,thr)beta2gamma2 subunits expressed in HEK293 cells
Assay type: cell-based
property label: pKi
Please keep in mind that pKi is minus log10 of the molar concentration; only the number is needed.

State its pKi on GABA A receptor alpha-6/beta-2/gamma-2 (Rattus norvegicus, UniProt P18508+P30191+P63138): Cc1nnc2ccc(-c3cccc(C(F)(F)F)c3)nn12 [CI-218872]
5.37
